# MEASURED TARGET: hERG (KCNH2) (Homo sapiens, UniProt Q12809)
# Sequence (Q12809 whole entry): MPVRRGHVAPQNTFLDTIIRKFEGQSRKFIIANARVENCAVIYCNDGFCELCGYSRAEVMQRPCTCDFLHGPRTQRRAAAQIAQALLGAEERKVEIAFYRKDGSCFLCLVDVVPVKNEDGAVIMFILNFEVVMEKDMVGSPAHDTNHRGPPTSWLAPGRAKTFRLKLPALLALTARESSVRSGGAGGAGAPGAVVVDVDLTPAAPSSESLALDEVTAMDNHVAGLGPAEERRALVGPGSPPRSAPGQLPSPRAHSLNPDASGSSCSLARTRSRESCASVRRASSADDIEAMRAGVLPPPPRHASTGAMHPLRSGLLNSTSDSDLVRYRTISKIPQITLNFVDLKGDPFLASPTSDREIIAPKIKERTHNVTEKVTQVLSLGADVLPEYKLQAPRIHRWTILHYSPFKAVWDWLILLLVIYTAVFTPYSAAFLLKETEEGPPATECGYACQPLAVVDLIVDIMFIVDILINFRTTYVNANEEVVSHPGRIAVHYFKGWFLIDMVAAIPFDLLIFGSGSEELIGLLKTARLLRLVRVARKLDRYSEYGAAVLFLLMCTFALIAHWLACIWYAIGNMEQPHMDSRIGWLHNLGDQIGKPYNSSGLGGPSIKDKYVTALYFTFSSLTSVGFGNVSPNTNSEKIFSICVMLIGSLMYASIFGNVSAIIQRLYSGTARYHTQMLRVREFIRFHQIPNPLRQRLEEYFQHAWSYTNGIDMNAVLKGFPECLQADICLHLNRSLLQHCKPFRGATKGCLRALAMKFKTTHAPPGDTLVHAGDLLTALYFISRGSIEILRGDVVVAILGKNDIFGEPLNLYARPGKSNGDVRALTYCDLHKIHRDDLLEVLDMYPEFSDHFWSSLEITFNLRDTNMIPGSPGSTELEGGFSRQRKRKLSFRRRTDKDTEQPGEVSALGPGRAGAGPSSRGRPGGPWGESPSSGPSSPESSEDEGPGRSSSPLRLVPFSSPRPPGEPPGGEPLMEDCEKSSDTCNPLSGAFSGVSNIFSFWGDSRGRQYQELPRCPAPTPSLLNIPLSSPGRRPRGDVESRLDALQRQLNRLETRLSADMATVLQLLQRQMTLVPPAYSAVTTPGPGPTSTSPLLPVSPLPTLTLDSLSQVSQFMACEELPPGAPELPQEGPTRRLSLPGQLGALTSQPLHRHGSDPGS
# EXPERIMENTAL DETAILS: Inhibition of human ERG expressed in CHO cells measured after 24 hrs by patch clamp assay relative to control
# Type: cell-based
# STUDY CONDITIONS: CHO cells expressing human ERG
QUANTITY MEASURED: inhibition at 24 h
Record the result as number plus unit.

q: Form field: reported inhibition at 24 h of COC1=C[C@@H]2[C@@H]3Cc4c(COC(=O)/C=C/c5ccccc5)cc(OC)c(OC(=O)/C=C/c5ccccc5)c4[C@]2(CCN3C)CC1=O
a: 26.2%

---

# EXPERIMENTAL DETAILS: Inhibition of mouse CTLL-2 cells activity incubated for 24 hrs
# Format: functional, cell-based
The label 1.0 is reserved for IC50 strictly under 4 µM; 0.0 covers values equal to or above it.

// below: answered compounds
CCCCCCCCCCCC(=O)Oc1c(OC)ccc2c1[C@@]13CCN(C)[C@@H](C2)[C@H]1C=C(OC)C(=O)C3 : 1.0
CCCCCCCCCCCCCC(=O)Oc1c(OC)ccc2c1[C@@]13CCN(C)[C@@H](C2)[C@H]1C[C@@H](OC)C(=O)C3 : 0.0
CCCCCCCCCCCCCC(=O)Oc1c(OC)cc(C=O)c2c1[C@@]13CCN(C)[C@@H](C2)[C@H]1C=C(OC)C(=O)C3 : 1.0
C=CCCCCCCCCC(=O)Oc1c(OC)ccc2c1[C@@]13CCN(C)[C@@H](C2)[C@H]1C=C(OC)C(=O)C3 : 0.0
COC1=C[C@@H]2[C@@H]3Cc4c(COC(=O)/C=C/c5ccccc5)cc(OC)c(OC(=O)/C=C/c5ccccc5)c4[C@]2(CCN3C)CC1=O : 1.0
CCCCCCCCCCCC(=O)Oc1c(OC)ccc2c1[C@@]13CCN(C)[C@@H](C2)[C@H]1C[C@@H](OC)C(=O)C3 : 0.0

Turning now to a further compound:
q: Check if IC50 falls below 4 µM for CCCCCCCCCCCCCC(=O)Oc1c(OC)ccc2c1[C@@]13CCN(C)[C@@H](C2)[C@H]1C=C(OC)C(=O)C3 .
a: 0.0

---

# EXPERIMENTAL DETAILS: Acute toxicity in po dosed Kunming mouse
# Format: organism-based
# STUDY CONDITIONS: in vivo
QUANTITY MEASURED: LD50 (mg/kg)
Give bare numbers, in mg/kg.

q: Form field: reported LD50 of COC1=C[C@@H]2[C@@H]3Cc4ccc(OC)c(O)c4[C@]2(CCN3C)CC1=O [SINOMENINE]
a: 1100

---

Kindly supply the reported inhibition at 24 h, 10 µM values for the records listed here.
# EXPERIMENTAL DETAILS: Cytotoxicity against C57BL/6J mouse peritoneal macrophages assessed as reduction of cell viability at 10 uM incubated for 24 hrs in presence of LPS by MTT assay
# Format: cell-based, Peritoneal macrophage
Numbers only, in %.

# example entries with known answers
CCCCCCCCCCCCCCCC(=O)Oc1c(OC)cc(C=O)c2c1[C@@]13CCN(C)[C@@H](C2)[C@H]1C=C(OC)C(=O)C3 : -1.9
C/C=C/C=C/C(=O)Oc1c(OC)cc(C=O)c2c1[C@@]13CCN(C)[C@@H](C2)[C@H]1C=C(OC)C(=O)C3 : 1.4
COC1=C[C@@H]2[C@@H]3Cc4ccc(OC)c(OC(=O)/C=C/c5ccccc5)c4[C@]2(CCN3C)CC1=O : -3.3
COC1=C[C@@H]2[C@@H]3Cc4c(C=O)cc(OC)c(O)c4[C@]2(CCN3C)CC1=O : 2.5

The record that follows has no inhibition at 24 h, 10 µM shown yet.
q: Form field: reported inhibition at 24 h, 10 µM of CCCCCCCCCCCCCC(=O)Oc1c(OC)ccc2c1[C@@]13CCN(C)[C@@H](C2)[C@H]1C=C(OC)C(=O)C3
a: 2.7

Just for reference, ChEMBL document CHEMBL4828748 is where these values come from.
